- Test system: rats
- PROTOCOL DESCRIPTION: Behavioral criteria: sedation and mobility score in rats
- MEASUREMENT CONTEXT: i.p., 5 mg/kg perphenazine, 7.5 mg/kg fluphenazine or equimolar conjugate; 180 min; score 0-3
Where a name gives a salt, the structure may show the parent alone.
Answer each item with its documented sedation and mobility score, 180 min.
Field format: numeric only.

Prompt line: Using the record for CCCC(=O)OCCN1CCN(CCCN2c3ccccc3Sc3ccc(C(F)(F)F)cc32)CC1 [AN-180, Fluphenazine Butyrate] , report its sedation and mobility score, 180 min.
Response line: 1

Prompt line: Proceed to CCCC(=O)OCCN1CCN(CCCN2c3ccccc3Sc3ccc(Cl)cc32)CC1 [AN-167, Perphenazine Butyrate]
Response line: 2

Prompt line: Proceed to NCCCC(=O)OCCN1CCN(CCCN2c3ccccc3Sc3ccc(Cl)cc32)CC1 [AN-168, Trihydrochloride]
Response line: 1

Prompt line: Proceed to NCCCC(=O)OCCN1CCN(CCCN2c3ccccc3Sc3ccc(C(F)(F)F)cc32)CC1 [AN-187, Trihydrochloride]
Response line: 1

Prompt line: Proceed to OCCN1CCN(CCCN2c3ccccc3Sc3ccc(Cl)cc32)CC1 [Perphenazine, perphenazine, reference compound]
Response line: 2

* * *

- System: rats
- PROTOCOL DESCRIPTION: Behavioral criteria: sedation and mobility score in rats
- MEASUREMENT CONTEXT: i.p., 5 mg/kg perphenazine, 7.5 mg/kg fluphenazine or equimolar conjugate; 30 min; score 0-3
Where a name gives a salt, the structure may show the parent alone.
RESULT TYPE: sedation and mobility score, 30 min

Prompt line: Using the record for NCCCC(=O)OCCN1CCN(CCCN2c3ccccc3Sc3ccc(Cl)cc32)CC1 [AN-168, Trihydrochloride] , report its sedation and mobility score, 30 min.
Response line: 0

Prompt line: Proceed to NCCCC(=O)OCCN1CCN(CCCN2c3ccccc3Sc3ccc(C(F)(F)F)cc32)CC1 [AN-187, Trihydrochloride]
Response line: 1

Prompt line: Proceed to CCCC(=O)OCCN1CCN(CCCN2c3ccccc3Sc3ccc(Cl)cc32)CC1 [AN-167, Perphenazine Butyrate]
Response line: 0

Prompt line: Proceed to CCCC(=O)OCCN1CCN(CCCN2c3ccccc3Sc3ccc(C(F)(F)F)cc32)CC1 [AN-180, Fluphenazine Butyrate]
Response line: 1

Prompt line: Proceed to OCCN1CCN(CCCN2c3ccccc3Sc3ccc(Cl)cc32)CC1 [Perphenazine, perphenazine, reference compound]
Response line: 1

* * *

- Test system: rats
- PROTOCOL DESCRIPTION: Behavioral criteria: sedation and mobility score in rats
- MEASUREMENT CONTEXT: i.p., 5 mg/kg perphenazine, 7.5 mg/kg fluphenazine or equimolar conjugate; 120 min; score 0-3
Where a name gives a salt, the structure may show the parent alone.
Answer each item with its documented sedation and mobility score, 120 min.
Field format: numeric only.

Prompt line: Using the record for NCCCC(=O)OCCN1CCN(CCCN2c3ccccc3Sc3ccc(C(F)(F)F)cc32)CC1 [AN-187, Trihydrochloride] , report its sedation and mobility score, 120 min.
Response line: 2

Prompt line: Proceed to NCCCC(=O)OCCN1CCN(CCCN2c3ccccc3Sc3ccc(Cl)cc32)CC1 [AN-168, Trihydrochloride]
Response line: 1

Prompt line: Proceed to OCCN1CCN(CCCN2c3ccccc3Sc3ccc(Cl)cc32)CC1 [Perphenazine, perphenazine, reference compound]
Response line: 3

Prompt line: Proceed to CCCC(=O)OCCN1CCN(CCCN2c3ccccc3Sc3ccc(Cl)cc32)CC1 [AN-167, Perphenazine Butyrate]
Response line: 2

Prompt line: Proceed to CCCC(=O)OCCN1CCN(CCCN2c3ccccc3Sc3ccc(C(F)(F)F)cc32)CC1 [AN-180, Fluphenazine Butyrate]
Response line: 2

* * *

Answer each item with its documented sedation and mobility score, 60 min.
- System: rats
- PROTOCOL DESCRIPTION: Behavioral criteria: sedation and mobility score in rats
- MEASUREMENT CONTEXT: i.p., 5 mg/kg perphenazine, 7.5 mg/kg fluphenazine or equimolar conjugate; 60 min; score 0-3
Where a name gives a salt, the structure may show the parent alone.
Field format: numeric only.

Prompt line: Using the record for NCCCC(=O)OCCN1CCN(CCCN2c3ccccc3Sc3ccc(Cl)cc32)CC1 [AN-168, Trihydrochloride] , report its sedation and mobility score, 60 min.
Response line: 0

Prompt line: Proceed to CCCC(=O)OCCN1CCN(CCCN2c3ccccc3Sc3ccc(C(F)(F)F)cc32)CC1 [AN-180, Fluphenazine Butyrate]
Response line: 2

Prompt line: Proceed to OCCN1CCN(CCCN2c3ccccc3Sc3ccc(Cl)cc32)CC1 [Perphenazine, perphenazine, reference compound]
Response line: 2

Prompt line: Proceed to NCCCC(=O)OCCN1CCN(CCCN2c3ccccc3Sc3ccc(C(F)(F)F)cc32)CC1 [AN-187, Trihydrochloride]
Response line: 2

Prompt line: Proceed to CCCC(=O)OCCN1CCN(CCCN2c3ccccc3Sc3ccc(Cl)cc32)CC1 [AN-167, Perphenazine Butyrate]
Response line: 1

* * *

- Test system: rats
- PROTOCOL DESCRIPTION: Behavioral criteria: sedation and mobility score in rats
- MEASUREMENT CONTEXT: i.p., 5 mg/kg perphenazine, 7.5 mg/kg fluphenazine or equimolar conjugate; 240 min; score 0-3
Where a name gives a salt, the structure may show the parent alone.
Answer each item with its documented sedation and mobility score, 240 min.
Field format: numeric only.

Prompt line: Using the record for OCCN1CCN(CCCN2c3ccccc3Sc3ccc(Cl)cc32)CC1 [Perphenazine, perphenazine, reference compound] , report its sedation and mobility score, 240 min.
Response line: 2

Prompt line: Proceed to NCCCC(=O)OCCN1CCN(CCCN2c3ccccc3Sc3ccc(C(F)(F)F)cc32)CC1 [AN-187, Trihydrochloride]
Response line: 1

Prompt line: Proceed to NCCCC(=O)OCCN1CCN(CCCN2c3ccccc3Sc3ccc(Cl)cc32)CC1 [AN-168, Trihydrochloride]
Response line: 1

Prompt line: Proceed to CCCC(=O)OCCN1CCN(CCCN2c3ccccc3Sc3ccc(Cl)cc32)CC1 [AN-167, Perphenazine Butyrate]
Response line: 2

Prompt line: Proceed to CCCC(=O)OCCN1CCN(CCCN2c3ccccc3Sc3ccc(C(F)(F)F)cc32)CC1 [AN-180, Fluphenazine Butyrate]
Response line: 1

* * *

- Test system: rats
- PROTOCOL DESCRIPTION: Behavioral criteria: sedation and mobility score in rats
- MEASUREMENT CONTEXT: i.p., 5 mg/kg perphenazine, 7.5 mg/kg fluphenazine or equimolar conjugate; 90 min; score 0-3
Counter-ions that a name gives are not always drawn.
RESULT TYPE: sedation and mobility score, 90 min

Prompt line: Using the record for CCCC(=O)OCCN1CCN(CCCN2c3ccccc3Sc3ccc(C(F)(F)F)cc32)CC1 [AN-180, Fluphenazine Butyrate] , report its sedation and mobility score, 90 min.
Response line: 3

Prompt line: Proceed to NCCCC(=O)OCCN1CCN(CCCN2c3ccccc3Sc3ccc(C(F)(F)F)cc32)CC1 [AN-187, Trihydrochloride]
Response line: 2

Prompt line: Proceed to CCCC(=O)OCCN1CCN(CCCN2c3ccccc3Sc3ccc(Cl)cc32)CC1 [AN-167, Perphenazine Butyrate]
Response line: 1

Prompt line: Proceed to NCCCC(=O)OCCN1CCN(CCCN2c3ccccc3Sc3ccc(Cl)cc32)CC1 [AN-168, Trihydrochloride]
Response line: 1

Prompt line: Proceed to OCCN1CCN(CCCN2c3ccccc3Sc3ccc(Cl)cc32)CC1 [Perphenazine, perphenazine, reference compound]
Response line: 2

* * *

- Test system: HL 60 MX2 (MDR)
- PROTOCOL DESCRIPTION: Proliferation test, HL 60 MX2 (MDR) cells
- Format: cell-based
- MEASUREMENT CONTEXT: Homo sapiens, HL60/MX2; linear regression of survival percentage
Where a name gives a salt, the structure may show the parent alone.
RESULT TYPE: pIC50
pIC50 is a log-scale quantity: -log10 of the concentration expressed in molar.

Prompt line: Using the record for NCCCC(=O)OCCN1CCN(CCCN2c3ccccc3Sc3ccc(C(F)(F)F)cc32)CC1 [AN-187, Trihydrochloride] , report its pIC50.
Response line: 4.77

Prompt line: Proceed to CCCCC(=O)OCCN1CCN(CCCN2c3ccccc3Sc3ccc(C(F)(F)F)cc32)CC1 [AN-181, Fluphenazine Valerate]
Response line: 4.78

Prompt line: Proceed to CCCC(=O)OCCN1CCN(CCCN2c3ccccc3Sc3ccc(Cl)cc32)CC1 [AN-167, Perphenazine Butyrate]
Response line: 4.70

Prompt line: Proceed to CCCC(=O)OCCN1CCN(CCCN2c3ccccc3Sc3ccc(C(F)(F)F)cc32)CC1 [AN-180, Fluphenazine Butyrate]
Response line: 4.73

Prompt line: Proceed to CCC(=O)OCCN1CCN(CCCN2c3ccccc3Sc3ccc(Cl)cc32)CC1 [AN-177, Perphenazine Propionate]
Response line: 4.75

Prompt line: Proceed to NCCCC(=O)OCCN1CCN(CCCN2c3ccccc3Sc3ccc(Cl)cc32)CC1 [AN-168, Trihydrochloride]
Response line: 4.74

Prompt line: Proceed to CCC(=O)OCCN1CCN(CCCN2c3ccccc3Sc3ccc(C(F)(F)F)cc32)CC1 [AN-179, Fluphenazine Propionate]
Response line: 4.67

Prompt line: Proceed to OCCN1CCN(CCCN2c3ccccc3Sc3ccc(Cl)cc32)CC1 [Perphenazine, perphenazine, reference compound]
Response line: 4.65
